Provide the reported RP-LC retention time of each item.
Experiment: gradient 5% acetonitrile 3 min, to 50% in 2 min, to 85% in 15 min, held 3 min, 100 µL/min
Details: column: Zorbax Extend-C18 2.1 x 50 mm; eluents: water / acetonitrile, 0.1% formic acid
Give a bare numeral; the unit s is implied.

Quote RP-LC retention time reported for Cc1nc2nc(-c3ccc(C(C)(C)C)cc3)nn2c(C)c1CC(=O)Nc1ccc(Br)cc1 please.
1220

Quote RP-LC retention time reported for Cc1sc2cc(C(=O)NC(C)(C)C)[nH]c2c1CN1CCCCC1 please.
681

Quote RP-LC retention time reported for O=C(CSc1ncn[nH]1)Nc1ccc2c(c1)OCCO2 please.
591

Quote RP-LC retention time reported for Cc1nc2ccn(Cc3cccs3)c(=O)c2cc1C(=O)N1CCOCC1 please.
648

Quote RP-LC retention time reported for Cn1cc(CN2CCC(C(=O)NCCCN3CCCCC3)CC2)c2cc(Cl)ccc21 please.
586

Quote RP-LC retention time reported for O=C(c1ccc(N2CCCC2)nn1)N1CCN(c2ncccn2)CC1 please.
548

Quote RP-LC retention time reported for Cn1c(C(=O)N2CCCC(C(=O)N3CCc4ccccc4C3)C2)cc2sccc21 (stereo unspecified) please.
925

Quote RP-LC retention time reported for COC(=O)c1ccc2c(=O)n(Cc3ccc(F)cc3)c(N3CCSC3)nc2c1 please.
1090

Quote RP-LC retention time reported for CCOC(=O)c1sc(NC(=O)CN2CCN(c3ccccn3)CC2)nc1C please.
605

Quote RP-LC retention time reported for CNC(=O)c1ccc(-n2c(C)ccc2C)nc1 please.
697

Quote RP-LC retention time reported for CC(Oc1ccc(-c2cnc3ccccc3n2)cc1)C(=O)N(C)Cc1ccco1 (stereo unspecified) please.
620

Quote RP-LC retention time reported for COc1ccc(C(=O)NCCc2sc(-c3cccnc3)nc2C)cc1 please.
619

Quote RP-LC retention time reported for CCn1nccc1-c1cccc(-c2noc(-c3ccc(Cl)cc3)n2)c1 please.
1340

Quote RP-LC retention time reported for CCN1CCCC(C(=O)NCc2cccs2)(c2ccccc2)CC1 (stereo unspecified) please.
643

Quote RP-LC retention time reported for O=C(C1CC1)N1CCCCC1c1nc(-c2cnccn2)no1 (stereo unspecified) please.
638

Quote RP-LC retention time reported for CCOc1ccc(C(=O)n2nc(C)c(S(=O)(=O)N3CCCCC3)c2C)cc1 please.
997

Quote RP-LC retention time reported for COC(=O)C(C)Sc1ncnc2sc(C)c(C)c12 (stereo unspecified) please.
955

Quote RP-LC retention time reported for COC(=O)c1ccc(NC(=O)N2CCOc3ccc(Cl)cc32)cc1 please.
1000

Quote RP-LC retention time reported for CCn1c(C(=O)N2CCN(c3ncccn3)CC2)cc2cc(S(=O)(=O)N(C)C)ccc21 please.
830

Quote RP-LC retention time reported for CC1CCCCN1CCNC(=O)c1ccc(-c2ccnc(N3CCCC3)n2)cc1 (stereo unspecified) please.
1230

Quote RP-LC retention time reported for Cc1cc(C)c2c(N3CCCC3)nc(C(=O)NCc3ccc(C)o3)nc2n1 please.
577

====

Experiment: gradient 5% acetonitrile 3 min, to 50% in 2 min, to 85% in 15 min, held 3 min, 100 µL/min
Settings: column: Zorbax Extend-C18 2.1 x 50 mm; eluents: water / acetonitrile, 0.1% formic acid
# label = rule met if RP-LC retention time < 700 s else rule not met

Hello, I'm reviewing records and need to know if RP-LC retention time of CCOC(=O)c1ccccc1NC(=O)Cn1c(-c2ccccc2)nc(C)cc1=O is below 700 s. Could you check?
rule not met

Hello, I'm reviewing records and need to know if RP-LC retention time of CCCNC(=O)c1cc(-c2ccccc2)cn1C is below 700 s. Could you check?
rule not met

Hello, I'm reviewing records and need to know if RP-LC retention time of CCOc1ccc(-c2nc(C3CC(=O)N(c4ccc(F)cc4)C3)no2)cc1OCC (stereo not given) is below 700 s. Could you check?
rule not met

Hello, I'm reviewing records and need to know if RP-LC retention time of Cc1ccccc1CC(=O)N1CCCC1c1c(C)noc1C (stereo not given) is below 700 s. Could you check?
rule not met

Hello, I'm reviewing records and need to know if RP-LC retention time of CCCN(C)S(=O)(=O)c1cc(-c2nnc(C(C)C)o2)co1 is below 700 s. Could you check?
rule not met

Hello, I'm reviewing records and need to know if RP-LC retention time of COc1ccc(-c2csc(C)n2)cc1S(=O)(=O)N(C)c1cccc(C)c1 is below 700 s. Could you check?
rule not met

Hello, I'm reviewing records and need to know if RP-LC retention time of C/C(=C\c1csc(C)n1)C1C[C@@H]2O[C@@H]2CCC[C@H](C)[C@H](O)[C@@H](C)C(=O)C(C)(C)[C@@H](O)CC(=O)O1 (stereo not given in full) is below 700 s. Could you check?
rule not met

Hello, I'm reviewing records and need to know if RP-LC retention time of O=C(CSc1nccn1-c1ccc(C(=O)NCc2cccs2)cc1)Nc1ccccc1 is below 700 s. Could you check?
rule met

Hello, I'm reviewing records and need to know if RP-LC retention time of COc1ccc(N2CC(c3noc(-c4ccccc4)n3)CC2=O)cc1 (stereo not given) is below 700 s. Could you check?
rule not met

Hello, I'm reviewing records and need to know if RP-LC retention time of Cn1cc(C(=O)Nc2ccc3c(c2)CCC3)c(S(=O)(=O)N2CCCCC2)n1 is below 700 s. Could you check?
rule not met

Hello, I'm reviewing records and need to know if RP-LC retention time of CCn1cc(-c2nc(C(=O)NCc3ccc(F)cc3Cl)cs2)c2cccnc21 is below 700 s. Could you check?
rule not met

Hello, I'm reviewing records and need to know if RP-LC retention time of Cc1noc([C@@H]2CN(C(=O)c3ccc(Cn4ccnc4)o3)C[C@H]2C(N)=O)n1 is below 700 s. Could you check?
rule met

Hello, I'm reviewing records and need to know if RP-LC retention time of CC(C)c1ccc(N2C=C(C(=O)N3CCOCC3)S(=O)(=O)c3ccccc32)cc1 is below 700 s. Could you check?
rule not met

Hello, I'm reviewing records and need to know if RP-LC retention time of CN(C)C[C@@H]1CN(c2ncccn2)C[C@H]1NS(=O)(=O)Cc1ccccc1 is below 700 s. Could you check?
rule met

Hello, I'm reviewing records and need to know if RP-LC retention time of O=C(NCC(c1cccnc1)N1CCOCC1)c1ccccc1 (stereo not given) is below 700 s. Could you check?
rule met

Hello, I'm reviewing records and need to know if RP-LC retention time of O=C(c1ccoc1)N1CCC(N2CCc3ccccc32)CC1 is below 700 s. Could you check?
rule not met

Hello, I'm reviewing records and need to know if RP-LC retention time of COc1ncc(C(=O)NCc2ccc(SC)cc2)cn1 is below 700 s. Could you check?
rule not met

Hello, I'm reviewing records and need to know if RP-LC retention time of CCN(CCN(C)C)c1ccc(C(=O)O)cc1NS(=O)(=O)c1ccc(Br)cc1 is below 700 s. Could you check?
rule met

Hello, I'm reviewing records and need to know if RP-LC retention time of CC1(C)C(=O)NCCN1C(=O)c1cccc(Cl)c1 is below 700 s. Could you check?
rule met

Hello, I'm reviewing records and need to know if RP-LC retention time of CN(CC1CCOC1)C(=O)Cc1ccc(Cl)cc1 (stereo not given) is below 700 s. Could you check?
rule not met

Hello, I'm reviewing records and need to know if RP-LC retention time of COc1ccc(C2CCCN2C(=O)c2ccnn2C)cc1 (stereo not given) is below 700 s. Could you check?
rule not met

Hello, I'm reviewing records and need to know if RP-LC retention time of CCn1ccc(NC(=O)Nc2ccccc2C)n1 is below 700 s. Could you check?
rule not met

Hello, I'm reviewing records and need to know if RP-LC retention time of Cc1ccc(Cn2cccc2C(=O)C(=O)NCc2ccco2)cc1C is below 700 s. Could you check?
rule not met

Hello, I'm reviewing records and need to know if RP-LC retention time of COc1cccc(-c2cc3c(=O)n(Cc4nc(-c5ccc(F)c(Br)c5)no4)ccn3n2)c1 is below 700 s. Could you check?
rule not met

Hello, I'm reviewing records and need to know if RP-LC retention time of C=CCn1c(=O)c2c(nc3n2CCCCN3c2ccc(OCC)cc2)n(C)c1=O is below 700 s. Could you check?
rule not met

Hello, I'm reviewing records and need to know if RP-LC retention time of Cn1c(CN2CCN(C(=O)c3ccc(C#N)cc3)CC2)nc2cc(C(=O)N3CCCC3)ccc21 is below 700 s. Could you check?
rule met

Hello, I'm reviewing records and need to know if RP-LC retention time of O=C(Cn1cccc(-c2nc(-c3ccc(Cl)cc3)no2)c1=O)Nc1ccc2c(c1)OCO2 is below 700 s. Could you check?
rule not met

Hello, I'm reviewing records and need to know if RP-LC retention time of CCCn1ccc2sc(C)c(C(=O)N3CCN(C(C)C)CC3)c2c1=O is below 700 s. Could you check?
rule met

Hello, I'm reviewing records and need to know if RP-LC retention time of Cn1cnc(S(=O)(=O)N2CCC(C(=O)Nc3ccc4c(c3)OCCO4)CC2)c1 is below 700 s. Could you check?
rule met

Hello, I'm reviewing records and need to know if RP-LC retention time of CCc1ccc(NC(=O)CN2C(=O)NC3(CCCCC3)C2=O)cc1 is below 700 s. Could you check?
rule not met

Hello, I'm reviewing records and need to know if RP-LC retention time of OCC1CN(c2ncccn2)CC12CCN(Cc1ccc3[nH]ccc3c1)CC2 (stereo not given) is below 700 s. Could you check?
rule met

Hello, I'm reviewing records and need to know if RP-LC retention time of CCOc1ccc(-n2nc(CO)c(C(=O)NC3CC3)n2)cc1 is below 700 s. Could you check?
rule not met

Hello, I'm reviewing records and need to know if RP-LC retention time of Cc1ccc(-c2cn3nc(N4CCCC(C(=O)N5CCOCC5)C4)sc3n2)cc1 (stereo not given) is below 700 s. Could you check?
rule not met

Hello, I'm reviewing records and need to know if RP-LC retention time of COc1cc(C)c(C)cc1S(=O)(=O)Nc1ccc2c(c1)C(=O)NCCO2 is below 700 s. Could you check?
rule met

Hello, I'm reviewing records and need to know if RP-LC retention time of CCc1cc(=O)n(CC(=O)NC(C)CCc2ccccc2)c(-c2ccccc2)n1 (stereo not given) is below 700 s. Could you check?
rule not met

Hello, I'm reviewing records and need to know if RP-LC retention time of Cc1cccc2nnc(N3CCN(C(=O)c4cccs4)CC3)n12 is below 700 s. Could you check?
rule met

Values from the METLIN SMRT retention time set (Domingo-Almenara et al. 2019)
